Ref: PubChem BioAssay (NCI)

Each entry below carries its recorded growth.
Test system: UO-31 renal
Assay: NCI-60 one-dose screen, 48 h (100 = growth as untreated, 0 = no growth, -100 = all killed)
Conditions: 10 µM unless noted
Protocol: Growth inhibition of the UO-31 human tumor cell line is measured as a screen for anti-cancer activity. Cells are grown in 96 well plates and exposed to the test compound for 48 hours. Compounds are tested at a single concentration, which is 10^-5 M for most compounds. The reported endpoint is percent growth (GI% or GIPRCNT), where numbers from 0 - 100% represent growth inhibition, and numbers from -100% - 0 represent cell death. For example, a value of 40 represents 60% growth inhibition. […]
The panel holds about 83,000 compounds, 20% with a hit somewhere; the sample as a whole holds those more often.
Report only the number, with the unit % understood.

{"COMPOUND": "COc1cc(C(=O)N2CCN(C(=O)c3ccco3)CC2)c(N)cc1OCc1ccccc1", "UOM": "%", "growth": 41.9}
{"COMPOUND": "NC(C(=O)O)C(O)c1ccc(OCc2ccccc2)c(OCc2ccccc2)c1 (stereo not drawn)", "UOM": "%", "growth": 92.1}
{"COMPOUND": "O=C1NCC(c2cc3ccccc3[nH]c2=O)Nc2ccccc21 (stereo not drawn)", "UOM": "%", "growth": 76.8}
{"COMPOUND": "COc1ccc(NC(=O)CSc2nc3ccc(Cl)cc3c(=O)n2-c2ccccc2C(F)(F)F)c(OC)c1OC", "UOM": "%", "growth": 77.6}
{"COMPOUND": "Nc1nc(N)c2nc(CNc3ccc(C(=O)CC(CCC(=O)O)C(=O)O)cc3)cnc2n1 (stereo not drawn)", "UOM": "%", "growth": 8.63}

Field growth (entry CC[C@H](C)[C@@H]1NC(=O)[C@H]([C@@H](C)O)NC(=O)C(Cc2ccccc2)NC(=O)[C@@H]2CCCN2C(=O)C(C(C)C)NC(=O)C(Cc2ccccc2)NC(=O)CNC(=O)[C@@H]2CCCN2C1=O (stereo partly drawn) ) reads 36.8

Field growth (entry O=C(O)Cc1ccc2c(c1)Cc1cccnc1O2 ) reads 94
